assay: Folding and unfolding kinetics (Chevron plot, stopped-flow CD, GuHCl); assay type: physicochemical; details: slope of ln(ku) vs GuHCl
readout-label: mu (M⁻¹)
Supply the numeric figure in M⁻¹, leaving out any unit text.

{"columns": ["molecule", "mu [M⁻¹]"],
 "data": [
  ["SYM5/ΔΔ: SYM5 FGF-1 mutant plus both Δ104-106 and Δ120-122 deletion mutations (protein, UniProt P05230 16-155, looked up, variant L44F L73V V109L L111I C117V A103G del104-106 R119G del120-122) Fibroblast growth factor 1: FNLPPGNYKKPKLLYCSNGGHFLRILPDGTVDGTRDRSDQHIQFQLSAESVGEVYIKSTETGQYLAMDTDGLVYGSQTPNEECLFLERLEENHYNTYISKKHGWFLGIKKNGSVKGTHYGQKAILFLPLPVSSD", 0.66]
]}

Continue with the molecule presented below.
Task: Entry SYM6/ΔΔ: SYM6 FGF-1 mutant plus both Δ104-106 and Δ120-122 deletion mutations, SEQ ID NO: 1 (protein, Human FGF-1 mutant SYM6DD) FNLPPGNYKKPKLLYCSNGGHFLRILPDGTVDGTRDRSDQHIQFQLSAESVGEVYIKSTETGQYLAIDTDGLVYGSQTPNEECLFLERLEENHYNTYISKKHGWFLGIKKNGSVKGTHYGQKAILFLPLPVSSD has what mu?
Output: 0.69

Entry source: patent US7790682B1
